- TARGET_OF_ASSAY: p110 delta (Homo sapiens (Human))
- Sequence (O00329 whole entry, one chain of several, canonical isoform): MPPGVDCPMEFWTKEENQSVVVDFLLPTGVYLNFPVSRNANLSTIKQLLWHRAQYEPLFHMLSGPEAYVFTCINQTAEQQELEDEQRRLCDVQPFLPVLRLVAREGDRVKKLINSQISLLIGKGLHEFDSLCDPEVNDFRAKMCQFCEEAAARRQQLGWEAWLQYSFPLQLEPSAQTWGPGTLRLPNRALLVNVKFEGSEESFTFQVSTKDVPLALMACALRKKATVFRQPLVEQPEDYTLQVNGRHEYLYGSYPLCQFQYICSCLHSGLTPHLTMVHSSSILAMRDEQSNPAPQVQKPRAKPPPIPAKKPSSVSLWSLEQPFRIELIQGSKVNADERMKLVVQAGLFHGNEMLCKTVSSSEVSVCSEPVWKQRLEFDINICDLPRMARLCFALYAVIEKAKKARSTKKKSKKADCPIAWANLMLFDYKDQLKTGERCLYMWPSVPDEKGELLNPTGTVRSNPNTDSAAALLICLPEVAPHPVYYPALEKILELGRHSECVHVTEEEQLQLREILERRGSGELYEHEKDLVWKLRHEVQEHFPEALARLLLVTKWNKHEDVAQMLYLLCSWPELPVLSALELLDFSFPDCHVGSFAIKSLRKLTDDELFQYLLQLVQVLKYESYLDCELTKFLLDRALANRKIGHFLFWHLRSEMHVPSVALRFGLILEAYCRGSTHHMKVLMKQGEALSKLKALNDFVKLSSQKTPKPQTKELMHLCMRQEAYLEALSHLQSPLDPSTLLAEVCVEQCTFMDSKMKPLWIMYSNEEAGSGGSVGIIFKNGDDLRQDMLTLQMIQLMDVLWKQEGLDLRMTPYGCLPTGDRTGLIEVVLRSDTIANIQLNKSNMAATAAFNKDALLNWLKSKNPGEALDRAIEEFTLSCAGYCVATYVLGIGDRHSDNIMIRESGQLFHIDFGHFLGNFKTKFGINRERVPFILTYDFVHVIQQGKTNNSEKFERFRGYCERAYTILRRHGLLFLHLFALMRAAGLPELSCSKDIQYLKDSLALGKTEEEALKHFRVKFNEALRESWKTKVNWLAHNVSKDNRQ
- PROCEDURE_TEXT: PI3K isoform inhibition assay, p110 delta (fluorescence polarization displacement)
pIC50: −log10 of the molar value.
Label T when pIC50 >= 9; otherwise F.

Asked: Identify whether the reported pIC50 of the following compound is 9 or greater: Cc1nc(-c2cn3c(n2)-c2cc(C(O)C4CCN(C)CC4)ccc2OCC3)n(C(C)C)n1 (stereo not drawn)
Given back: F

Asked: Dear colleague, could you confirm whether CC(C)n1nc(CO)nc1-c1cn2c(n1)-c1ccc(-c3ccnn3C3CCN(C)CC3)cc1OCC2 has pIC50 at or above 9?
Given back: F

Asked: Is it the case that Cc1nc(-c2cn3c(n2)-c2ccc(-c4ccnn4C4CCN(C(C)(C)C)CC4)cc2OCC3)n(C(C)C)n1 has pIC50 reaching or exceeding 9?
Given back: F

Asked: Identify whether the reported pIC50 of the following compound is 9 or greater: Cc1nc(-c2cn3c(n2)-c2ccc(-c4cnn(C)c4N4CCN(C)[C@H](C(C)C)C4)cc2OCC3)n(C(C)C)n1
Given back: T

Asked: Decide: pIC50 of Cc1nc(-c2cn3c(n2)-c2ccc(N4CCCC4CN(C)C)cc2OCC3)n(C(C)C)n1 (stereo not drawn) [Example 346] >= 9?
Given back: T

Asked: Confirm if pIC50 reported for the compound Cc1nc(-c2cn3c(n2)-c2ccc(OC4(c5ccccc5)CN(C(C)C)C4)cc2OCC3)n(C(C)C)n1 is 9 or above.
Given back: F

Asked: // inclusive: pIC50 at least 9? input: CCN1CCN(C(C)c2cc3c(cc2F)OCCn2cc(-c4nc(C)nn4C(C)C)nc2-3)CC1 (stereo not drawn)
Given back: F

Asked: Item Cc1nc(-c2cn3c(n2)-c2ccc(N4CCC[C@H]4CN4CCCC4)cc2OCC3)n(C(C)C)n1 with pIC50 of 9 or above?
Given back: T

Asked: Would you say Cc1nc(-c2cn3c(n2)-c2ccc(N4CCCC4C4CCCN(C)C4)cc2OCC3)n(C(C)C)n1 (stereo not drawn) [Example 321] shows pIC50 at minimum 9?
Given back: F

Asked: Exam item: decide whether the reported pIC50 for Cc1nc(-c2cn3c(n2)-c2cc(-c4ccnn4[C@H]4CCCN(C(C)C)C4)c(F)cc2OCC3)n(C(C)C)n1 is at least 9.
Given back: T

Asked: Test whether the compound Cc1nc(-c2cn3c(n2)-c2ccc(-c4cnn(C)c4C4CN(C(C)C)CCN4C)cc2OCC3)n(C(C)C)n1 (stereo not drawn) records pIC50 of 9 or higher.
Given back: T

Asked: Please tell me: is the compound Cc1nc(-c2cn3c(n2)-c2cc(C(=O)N4CCN(C(C)(C)C)CC4)c(F)cc2OCC3)n(C(C)C)n1 at or over 9 in terms of pIC50?
Given back: F

---

Provide the reported IC50 p110 alpha/IC50 p110 delta of each item.
- TARGET_OF_ASSAY: p110 alpha (Homo sapiens (Human))
- Sequence (P42336 whole entry, canonical isoform): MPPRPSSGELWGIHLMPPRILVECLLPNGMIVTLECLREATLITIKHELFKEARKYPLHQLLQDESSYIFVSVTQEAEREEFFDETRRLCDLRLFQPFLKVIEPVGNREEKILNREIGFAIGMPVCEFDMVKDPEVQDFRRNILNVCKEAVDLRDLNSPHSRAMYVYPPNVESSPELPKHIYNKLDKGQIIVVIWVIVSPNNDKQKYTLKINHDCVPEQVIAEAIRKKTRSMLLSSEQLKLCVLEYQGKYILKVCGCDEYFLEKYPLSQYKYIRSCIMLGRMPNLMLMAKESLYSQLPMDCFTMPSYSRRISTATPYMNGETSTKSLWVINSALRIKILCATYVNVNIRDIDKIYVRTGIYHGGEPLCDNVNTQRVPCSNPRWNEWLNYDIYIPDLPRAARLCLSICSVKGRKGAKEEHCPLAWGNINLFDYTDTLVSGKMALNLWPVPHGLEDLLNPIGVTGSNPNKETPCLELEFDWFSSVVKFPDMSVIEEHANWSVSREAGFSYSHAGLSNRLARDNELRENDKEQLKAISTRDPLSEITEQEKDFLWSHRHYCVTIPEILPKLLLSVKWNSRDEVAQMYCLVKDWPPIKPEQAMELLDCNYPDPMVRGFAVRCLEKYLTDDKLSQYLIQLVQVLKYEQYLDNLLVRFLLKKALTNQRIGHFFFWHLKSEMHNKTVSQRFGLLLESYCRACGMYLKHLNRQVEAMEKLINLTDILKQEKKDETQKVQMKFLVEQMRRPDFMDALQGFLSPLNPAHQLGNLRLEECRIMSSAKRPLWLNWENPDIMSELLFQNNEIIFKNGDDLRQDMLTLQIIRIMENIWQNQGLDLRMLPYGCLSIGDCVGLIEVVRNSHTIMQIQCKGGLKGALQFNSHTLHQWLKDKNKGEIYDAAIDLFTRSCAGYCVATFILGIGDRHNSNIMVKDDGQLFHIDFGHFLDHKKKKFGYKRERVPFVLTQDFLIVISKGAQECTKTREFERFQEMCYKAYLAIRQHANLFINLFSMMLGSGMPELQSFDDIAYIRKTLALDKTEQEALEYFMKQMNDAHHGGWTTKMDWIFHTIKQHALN
- Sequence (P27986 whole entry partner, canonical isoform): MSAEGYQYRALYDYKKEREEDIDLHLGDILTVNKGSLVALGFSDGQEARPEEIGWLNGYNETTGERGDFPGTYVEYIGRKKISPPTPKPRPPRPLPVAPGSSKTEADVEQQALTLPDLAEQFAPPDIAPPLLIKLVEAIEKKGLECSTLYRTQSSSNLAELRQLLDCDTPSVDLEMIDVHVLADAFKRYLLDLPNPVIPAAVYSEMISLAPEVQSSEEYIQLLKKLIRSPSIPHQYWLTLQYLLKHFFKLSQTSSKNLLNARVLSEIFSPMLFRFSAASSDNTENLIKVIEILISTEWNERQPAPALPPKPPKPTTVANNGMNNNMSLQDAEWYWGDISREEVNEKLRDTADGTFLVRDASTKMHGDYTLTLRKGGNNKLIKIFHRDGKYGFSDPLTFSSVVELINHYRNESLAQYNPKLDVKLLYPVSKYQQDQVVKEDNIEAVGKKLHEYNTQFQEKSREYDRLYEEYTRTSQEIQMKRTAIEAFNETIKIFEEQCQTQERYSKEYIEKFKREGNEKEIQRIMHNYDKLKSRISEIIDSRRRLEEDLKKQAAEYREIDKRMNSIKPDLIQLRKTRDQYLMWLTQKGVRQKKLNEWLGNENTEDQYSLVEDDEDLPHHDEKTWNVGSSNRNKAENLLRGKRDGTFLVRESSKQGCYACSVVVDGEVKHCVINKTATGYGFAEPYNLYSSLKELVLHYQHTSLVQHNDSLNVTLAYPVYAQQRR
- PROCEDURE_TEXT: PI3K isoform inhibition assay, p110 alpha (for alpha/delta selectivity)
- CONDITION_LABEL: ratio of biochemical IC50 values

Asked: Look up IC50 p110 alpha/IC50 p110 delta for this compound: Cc1nc(-c2cn3c(n2)-c2ccc(-c4cn[nH]c4C4CCCN(C(C)C)C4)cc2OCC3)n(C(C)C)n1 (centres unmarked) [Example 361]
Given back: 23.6

Asked: Fill blank: measured IC50 p110 alpha/IC50 p110 delta of the compound Cc1nc(-c2cn3c(n2)-c2cc([C@@H](C)N4CCN(CC(C)(C)O)CC4)c(F)cc2OCC3)n(C(C)C)n1 is ____.
Given back: 17.3

Asked: # query: IC50 p110 alpha/IC50 p110 delta of entry Cc1nc(-c2cn3c(n2)-c2cc([C@@H](C)N4CCN(C(C)C)CC4)c(C)cc2OCC3)n(C(C)C)n1
Given back: 104

Asked: Consider the compound COc1cc2c(cc1[C@@H](C)N1CCN(C(C)(C)C)CC1)-c1nc(-c3nc(C)nn3C(C)C)cn1CCO2 [Example 356] and give its measured IC50 p110 alpha/IC50 p110 delta.
Given back: 45.5

Asked: Which IC50 p110 alpha/IC50 p110 delta is reported for this compound? Cc1nc(-c2cn3c(n2)-c2ccc(-c4ncnn4C4CCN(C(C)(C)C)CC4)cc2OCC3)n(C(C)C)n1
Given back: 10.2

Asked: If you can, please state the reported IC50 p110 alpha/IC50 p110 delta value of Cc1nc(-c2cn3c(n2)-c2ccc(N4CCCC4C4CCN(S(C)(=O)=O)CC4)cc2OCC3)n(C(C)C)n1 (centres unmarked) .
Given back: 12.4

Asked: Which IC50 p110 alpha/IC50 p110 delta value belongs to Cc1nc(-c2cn3c(n2)-c2ccc(-c4ccnn4C4CCN(C(C)C)CC4)cc2OCC3)n(C(C)C)n1 ?
Given back: 31.5

Asked: # IC50 p110 alpha/IC50 p110 delta lookup, item CC(C)n1ncnc1-c1cn2c(n1)-c1cc([S+]([O-])C3CCN(C(C)(C)C)CC3)ccc1OCC2 (centres unmarked)
Given back: 184

Asked: Using the record for Cc1nc(-c2cn3c(n2)-c2cc(-c4ccnn4C4CCCN(C(C)(C)CO)C4)c(F)cc2OCC3)n(C(C)C)n1 (centres unmarked) [Example 355] , report its IC50 p110 alpha/IC50 p110 delta.
Given back: 46.4

Asked: Could you share which IC50 p110 alpha/IC50 p110 delta value was measured for Cc1nc(-c2cn3c(n2)-c2cc(C(C)N4CCN(C)CC4)c(F)cc2OCC3)n(C(C)C)n1 (centres unmarked) ?
Given back: 15.7

Asked: I'd like to know its IC50 p110 alpha/IC50 p110 delta. The compound in question is Cc1nc(-c2cn3c(n2)-c2cc([C@@H](C)N4CCN(C(C)(C)C)CC4)ncc2OCC3)n(C(C)C)n1
Given back: 28.6

Asked: Fill blank: measured IC50 p110 alpha/IC50 p110 delta of the compound Cc1nc(-c2cn3c(n2)-c2cc(C(=O)N4CCN(C(C)(C)CO)CC4)c(F)cc2OCC3)n(C(C)C)n1 is ____.
Given back: 30.6

Asked: Any idea what its IC50 p110 alpha/IC50 p110 delta is? The compound is Cc1nc(-c2cn3c(n2)-c2ccc(N4CCC[C@H]4CN4CCCC4)cc2OCC3)n(C(C)C)n1
Given back: 20.2

Asked: Could you share which IC50 p110 alpha/IC50 p110 delta value was measured for Cc1nc(-c2cn3c(n2)-c2ccc(-c4cnn(C)c4C4CN(C(C)C)CCN4C)cc2OCC3)n(C(C)C)n1 (centres unmarked) ?
Given back: 172
